system under test: LasR (Pseudomonas aeruginosa)
Construct: expressed in transfected cells; host or cells: Escherichia coli DH5α (pJN105L+pSC11)
experiment description: LasR agonism assay, P. aeruginosa PA01 MW1 (pUM15) YFP reporter strain
Format: cell-based
measurement parameters: thiolactone libraries; P. aeruginosa; synthetic ligands tested at 10 μM
property: Act % (%)
State just the number; it will be interpreted in %.

INSERT INTO results (compound, system_under_test, value_reported) VALUES
  ('O=C(Cc1cccc([N+](=O)[O-])c1)NC1CCSC1=O (racemic) [Compound 19]', 'LasR (Pseudomonas aeruginosa)', 5),
  ('CCCCCCCC(=O)N[C@H]1CCSC1=O [Compound 26E]', 'LasR (Pseudomonas aeruginosa)', 0),
  ('O=C(Cc1ccccc1)N[C@H]1CCSC1=O [Compound 21E]', 'LasR (Pseudomonas aeruginosa)', 17),
  ('CCCCCC(=O)N[C@H]1CCSC1=O [Compound 28E]', 'LasR (Pseudomonas aeruginosa)', 20);

Query :: # query: Act % of entry COc1ccc(CC(=O)NC2CCSC2=O)cc1 (racemic) [Compound 20]
Result :: 7

----------
system under test: LasR (Pseudomonas aeruginosa)
Construct: expressed in transfected cells; host or cells: Escherichia coli DH5α (pJN105L+pSC11)
experiment description: LasR antagonism assay, P. aeruginosa PA01 MW1 (pUM15) YFP reporter strain
Type: cell-based
measurement parameters: initial library (FIG. 4); P. aeruginosa PA01 MW1; negative values indicate agonist properties
property: Antagonist, percent inhibition compared to a positive control
Please format your answer as a value with the unit trailing.

INSERT INTO results (smiles_representation, system_under_test, value_reported) VALUES
  ('CCCCCCCCCC(=O)CC(=O)NCc1cccc([N+](=O)[O-])c1', 'LasR (Pseudomonas aeruginosa)', '16.8%'),
  ('CCCCCCCCCC(=O)CC(=O)NCc1ccc(OC)cc1', 'LasR (Pseudomonas aeruginosa)', '37.8%'),
  ('CCCCCCCCCC(=O)CC(=O)NCc1ccco1', 'LasR (Pseudomonas aeruginosa)', '25.5%');

Query :: # query: Antagonist, percent inhibition compared to a positive control of entry CCCCCCCCCC(=O)CC(=O)Nc1ccccc1
Result :: 28.7%

----------
system under test: LasR (Pseudomonas aeruginosa, UniProt P25084)
Construct: expressed in transfected cells; host or cells: Escherichia coli DH5α (pJN105L+pSC11)
Sequence (P25084 whole entry): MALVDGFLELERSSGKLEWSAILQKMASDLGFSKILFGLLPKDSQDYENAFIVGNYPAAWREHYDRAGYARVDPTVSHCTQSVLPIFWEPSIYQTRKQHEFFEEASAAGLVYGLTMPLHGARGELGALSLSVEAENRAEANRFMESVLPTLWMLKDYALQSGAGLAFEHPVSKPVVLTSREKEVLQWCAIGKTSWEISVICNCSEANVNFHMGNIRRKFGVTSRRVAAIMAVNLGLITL
experiment description: LasR antagonism assay, E. coli DH5α (pJN105L+pSC11) β-galactosidase reporter strain
Assay type: cell-based, P. aeruginosa
measurement parameters: thiolactone libraries, synthetic ligands tested at 10 μM
Each record gets a class by Inhib %: low band = under 40%, middle band = from 40% up to 60%, high band = 60% and over

// below: answered molecules
INSERT INTO assay_data (molecule, classification) VALUES
  ('COc1ccc(CC(=O)NC2CCSC2=O)cc1 (racemic)', 'middle band'),
  ('O=C(Cc1ccc(-c2ccccc2)cc1)N[C@H]1CCSC1=O [Compound 23E]', 'middle band'),
  ('COc1ccc(CC(=O)N[C@H]2CCSC2=O)cc1 [Compound 20E]', 'middle band'),
  ('CCCCCCCC(=O)N[C@H]1CCSC1=O [Compound 26E]', 'high band'),
  ('O=C(Cc1ccc(Br)cc1)N[C@H]1CCSC1=O [Compound 18E]', 'high band');

Query :: Assign a category based on measured Inhib % for O=C(Cc1cccc([N+](=O)[O-])c1)NC1CCSC1=O (racemic) and give only the class name.
Result :: low band

Query :: Assign a category based on measured Inhib % for CCCCCCC(=O)N[C@H]1CCSC1=O [Compound 27E] and give only the class name.
Result :: high band

Query :: Assign a category based on measured Inhib % for O=C(CCc1c[nH]c2ccccc12)NC1CCSC1=O (racemic) and give only the class name.
Result :: low band

----------
Examples of compounds with documented EC50 follow.
system under test: LasR (Pseudomonas aeruginosa)
Construct: expressed in transfected cells; host or cells: Escherichia coli DH5α (pJN105L+pSC11)
experiment description: LasR agonism assay, P. aeruginosa PA01 MW1 (pUM15) YFP reporter strain
Type: cell-based
measurement parameters: dose response; P. aeruginosa PA01 MW1 (pUM15)
State just the number; it will be interpreted in µM.

Look over these answered cases.
INSERT INTO assay_data (compound, system_under_test, property, measurement_unit, value_reported) VALUES
  ('CCCCCCCCCCCC(=O)N[C@H]1CCSC1=O [Compound 25E]', 'LasR (Pseudomonas aeruginosa)', 'EC50', 'µM', 21),
  ('CCCC(=O)CC(=O)N[C@H]1CCSC1=O [Compound 30E]', 'LasR (Pseudomonas aeruginosa)', 'EC50', 'µM', 13);

Query :: # query: EC50 of entry CCCCCCCCCC(=O)CC(=O)N[C@H]1CCSC1=O [Compound 1E]
Result :: 3.2

----------
system under test: LasR (Pseudomonas aeruginosa, UniProt P25084)
Construct: expressed in transfected cells; host or cells: Escherichia coli DH5α (pJN105L+pSC11)
experiment description: LasR agonism assay, E. coli DH5α (pJN105L+pSC11) β-galactosidase reporter strain
Type: cell-based, P. aeruginosa
measurement parameters: thiolactone libraries; E. coli; synthetic ligands tested at 10 μM
Description: The black bars are DH5α (pJN105L+pSC11) and the grey bars are PA01 MW1 (pUM15). Agonism positive control=activity of the reporter strain at full turn on for the strain. […] Negative control (Neg)=bacteria in the absence of natural and synthetic ligand. Error bars=standard deviation of the mean of triplicate samples. […]
Kindly apply the following: criterion met if Act % is less than 1%, criterion not met in every other case.

INSERT INTO assay_data (molecule, classification) VALUES
  ('CCCCCC(=O)CC(=O)N[C@H]1CCSC1=O [Compound 24E]', 'criterion met'),
  ('O=C(Cc1ccccc1)N[C@H]1CCSC1=O [Compound 21E]', 'criterion not met');

Query :: Is Act % strictly under 1% for the entry CCCCCCCCCC(=O)CC(=O)NC1CCSC1=O (stereo not shown) ?
Result :: criterion not met

Query :: Is Act % strictly under 1% for the entry CCCCCCC(=O)N[C@H]1CCSC1=O [Compound 27E] ?
Result :: criterion not met

Query :: Is Act % strictly under 1% for the entry O=C(Cc1cccc([N+](=O)[O-])c1)NC1CCSC1=O (racemic) ?
Result :: criterion not met

Query :: Is Act % strictly under 1% for the entry COc1ccc(CC(=O)N[C@H]2CCSC2=O)cc1 [Compound 20E] ?
Result :: criterion met

Query :: Is Act % strictly under 1% for the entry CCCC(=O)CC(=O)N[C@H]1CCSC1=O [Compound 30E] ?
Result :: criterion not met

Query :: Is Act % strictly under 1% for the entry O=C(Cc1ccc(Br)cc1)NC1CCSC1=O (racemic) ?
Result :: criterion not met

----------
system under test: LasR (Pseudomonas aeruginosa)
Construct: expressed in transfected cells; host or cells: Escherichia coli DH5α (pJN105L+pSC11)
experiment description: LasR antagonism assay, E. coli DH5α (pJN105L+pSC11) β-galactosidase reporter strain
Assay type: cell-based, P. aeruginosa
measurement parameters: initial library (FIG. 4); E. coli DH5α (pJN105L+pSC11); negative values indicate agonist properties
property: Antagonist, percent inhibition compared to a positive control

Look over these answered cases.
INSERT INTO results (molecule, value_reported) VALUES
  ('CCCCCCCCCC(=O)CC(=O)Nc1ccccc1 [Compound 2]', '53.7%'),
  ('CCCCCCCCCC(=O)CC(=O)NCc1ccccc1F [Compound 7]', '38.8%'),
  ('CCCCCCCCCC(=O)CC(=O)NCc1cccc([N+](=O)[O-])c1 [Compound 13]', '41.0%');

Query :: Any idea what Antagonist, percent inhibition compared to a positive control came out for CCCCCCCCCC(=O)CC(=O)NCc1ccc(OC)cc1 [Compound 14] on LasR (Pseudomonas aeruginosa)?
Result :: −67.7%

----------
system under test: LuxR (Aliivibrio fischeri)
Sequence (P35327 whole entry): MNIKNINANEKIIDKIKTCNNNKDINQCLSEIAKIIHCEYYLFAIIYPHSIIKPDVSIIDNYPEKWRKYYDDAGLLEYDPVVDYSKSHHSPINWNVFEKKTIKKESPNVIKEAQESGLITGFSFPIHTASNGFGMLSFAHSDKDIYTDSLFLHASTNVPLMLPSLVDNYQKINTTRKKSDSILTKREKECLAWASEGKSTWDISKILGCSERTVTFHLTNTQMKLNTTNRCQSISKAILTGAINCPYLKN
measurement parameters: dose response; V. fischeri ESI 114 (Δ-LuxI)
property: pEC50
FYI, pEC50 means -log10 of a concentration in mol per litre.

Query :: # query: pEC50 of entry O=C(Cc1cccc([N+](=O)[O-])c1)N[C@H]1CCSC1=O [Compound 19E]
Result :: 4.96

----------
Examples of compounds with documented half-life follow.
experiment description: Functional half-life of autoinducers: ligand pre-incubated in media, then PA01 MW1 (pUM15) agonism readout
Type: cell-based, P. aeruginosa
measurement parameters: ligand incubated in media with antibiotics at 37° C.; pseudo first order, t1/2=ln(2)/slope
State just the number; it will be interpreted in days.

INSERT INTO measurements (smiles_representation, property, value_reported) VALUES
  ('CCCCCCCCCC(=O)CC(=O)N[C@H]1CCOC1=O', 'half-life', 2.01);

Proceeding to the next compound to report its half-life.
Query :: # query: half-life of entry CCCCCCCCCC(=O)CC(=O)N[C@H]1CCSC1=O
Result :: 3.43
